Ref: ChEMBL document CHEMBL3774315

# Tested On: Tumour suppressor p53/oncoprotein Mdm2 (Homo sapiens, UniProt P04637+Q00987)
# Sequence (P04637 whole entry): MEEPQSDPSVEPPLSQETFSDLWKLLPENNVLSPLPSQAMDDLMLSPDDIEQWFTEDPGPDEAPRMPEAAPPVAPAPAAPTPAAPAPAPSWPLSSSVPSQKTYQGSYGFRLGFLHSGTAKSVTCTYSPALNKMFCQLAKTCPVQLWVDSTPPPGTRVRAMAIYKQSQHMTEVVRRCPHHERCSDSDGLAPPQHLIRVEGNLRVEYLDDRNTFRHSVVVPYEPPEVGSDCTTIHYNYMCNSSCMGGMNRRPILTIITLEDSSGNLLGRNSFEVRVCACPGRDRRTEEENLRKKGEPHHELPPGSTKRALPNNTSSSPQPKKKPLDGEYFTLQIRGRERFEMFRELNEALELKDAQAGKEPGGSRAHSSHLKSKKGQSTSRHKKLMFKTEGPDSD
# Sequence (Q00987 whole entry): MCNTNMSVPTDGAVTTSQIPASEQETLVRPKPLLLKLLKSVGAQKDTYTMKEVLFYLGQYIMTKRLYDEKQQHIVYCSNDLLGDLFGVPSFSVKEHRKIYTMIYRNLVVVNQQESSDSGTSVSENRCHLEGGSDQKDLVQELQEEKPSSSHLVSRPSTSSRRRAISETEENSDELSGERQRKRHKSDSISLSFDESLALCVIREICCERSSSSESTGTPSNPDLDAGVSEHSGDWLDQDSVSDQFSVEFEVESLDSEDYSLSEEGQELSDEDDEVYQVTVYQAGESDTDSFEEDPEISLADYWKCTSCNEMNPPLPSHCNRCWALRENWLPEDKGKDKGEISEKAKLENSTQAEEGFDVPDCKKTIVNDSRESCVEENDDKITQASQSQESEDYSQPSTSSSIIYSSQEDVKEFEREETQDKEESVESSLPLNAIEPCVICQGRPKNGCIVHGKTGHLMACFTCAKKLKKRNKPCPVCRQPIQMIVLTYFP
# Run Description: Inhibition of Flag-tagged p53/GST-tagged Mdm2 (unknown origin) expressed in Escherichia coli BL21 after 1 hr by ELISA microplate reader method
Measured Metric: IC50 (µM)

{"Smiles Text": "O=C(Nc1ccccc1S)c1ccc(Cl)cc1", "Tested On": "Tumour suppressor p53/oncoprotein Mdm2 (Homo sapiens, UniProt P04637+Q00987)", "IC50 (µM)": 18.4}
{"Smiles Text": "CC(C)C(=O)Nc1ccccc1SC(=O)C(C)C", "Tested On": "Tumour suppressor p53/oncoprotein Mdm2 (Homo sapiens, UniProt P04637+Q00987)", "IC50 (µM)": 13.1}
{"Smiles Text": "O=C(Nc1ccccc1S)c1ccc(Cl)nc1", "Tested On": "Tumour suppressor p53/oncoprotein Mdm2 (Homo sapiens, UniProt P04637+Q00987)", "IC50 (µM)": 15.3}
{"Smiles Text": "CC(C)C(=O)Sc1ccccc1NC(=O)c1ccccc1", "Tested On": "Tumour suppressor p53/oncoprotein Mdm2 (Homo sapiens, UniProt P04637+Q00987)", "IC50 (µM)": 14.6}

* * *

Some compounds, each annotated with its measured IC50.
# Tested On: Tumour suppressor protein p53/Mdm4 (Homo sapiens, UniProt O15151+P04637)
# Sequence (O15151 whole entry, one chain of several): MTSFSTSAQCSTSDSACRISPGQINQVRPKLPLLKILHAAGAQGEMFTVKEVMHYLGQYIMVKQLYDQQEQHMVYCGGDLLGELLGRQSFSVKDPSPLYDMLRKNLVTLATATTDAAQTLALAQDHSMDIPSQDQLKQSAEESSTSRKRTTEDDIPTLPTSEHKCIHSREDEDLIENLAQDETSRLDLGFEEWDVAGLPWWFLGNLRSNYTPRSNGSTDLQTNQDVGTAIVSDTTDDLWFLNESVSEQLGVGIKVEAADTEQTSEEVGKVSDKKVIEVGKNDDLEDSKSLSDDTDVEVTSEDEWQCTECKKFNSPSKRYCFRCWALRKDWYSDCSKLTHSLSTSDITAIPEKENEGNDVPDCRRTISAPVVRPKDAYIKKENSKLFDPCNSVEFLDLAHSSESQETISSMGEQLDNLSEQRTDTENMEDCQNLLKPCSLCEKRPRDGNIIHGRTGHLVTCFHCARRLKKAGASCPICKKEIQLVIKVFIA
# Run Description: Inhibition of Flag-tagged p53/GST-tagged Mdmx (unknown origin) expressed in Escherichia coli BL21 after 1 hr by ELISA microplate reader method

Answered cases to consult:
{"Smiles Text": "CC(C)C(=O)Nc1ccccc1OC(=O)C(C)C", "Measured": "> 25 µM"}
{"Smiles Text": "CC(C)C(=O)Nc1ccccc1O", "Measured": "> 25 µM"}

As a next step, examine the compound that follows.
What IC50 value was documented for this compound, `CCCCCCCC(=O)Nc1ccccc1S` ?
> 25 µM
